Hey, just so you know, these numbers are from patent US12252487B2.

Assay: Solubility of Compound 1 in 19 types of solvents at room temperature
Format: physicochemical
Details: organic solvent or mixture, thermodynamic from solid; solvent Ethyl formate, 3000 μL, not dissolved completely at 50° C.
Experimental endpoint: solubility

Item under review: O=C(O)[C@H]1C2CCC(CC2)[C@@H]1Nc1nc(-c2n[nH]c3ncc(F)cc23)nc(C2CC2)c1F [Compound 1] . Reported solubility?
< 3300 µg/mL

* * *

Assay: Solubility of Compound 1 in 19 types of solvents at room temperature
Assay type: physicochemical
Details: organic solvent or mixture, thermodynamic from solid; solvent Methyl isobutyl ketone, 3000 μL, not dissolved completely at 50° C.
From the text: Compound 1 was detected at room temperature for its solubility in 19 types of solvents. Specially, Compound 1 obtained in Example 1 was taken as sample for detecting its solubility in methanol, ethanol, water, acetonitrile, dioxane and other solvents.
Experimental endpoint: solubility

Item under review: "O=C(O)[C@H]1C2CCC(CC2)[C@@H]1Nc1nc(-c2n[nH]c3ncc(F)cc23)nc(C2CC2)c1F" . Reported solubility?
< 3300 µg/mL
